All figures here come from paper PMC9103244.

Please enter met where melting point is greater than or equal to 200 °C, and not met where it is lower.

Consider the worked cases shown below.
Sc1nnc(Cc2ccccc2)n1/N=C/c1cccc2c1OCO2 :: not met
O=C(O)c1ccc(-n2cc(CSc3nnc(Cc4ccccc4)n3/N=C/c3cccc4c3OCO4)nn2)cc1 :: not met
C#CCSc1nnc(Cc2ccccc2)n1/N=C/c1cccs1 :: not met
C#CCSc1nnc(Cc2ccccc2)n1/N=C/c1ccc(N2CCOCC2)cc1 :: met
O=C(O)c1ccc(-n2cc(CSc3nnc(Cc4ccccc4)n3/N=C/c3ccc(N4CCOCC4)cc3)nn2)cc1 :: not met

Pending molecule:
Q: Does `C#CCSc1nnc(Cc2ccccc2)n1/N=C/c1cccc2c1OCO2` have a reported melting point of at least 200 °C?
Result: not met
